# MEASUREMENT_DESCRIPTION: Confirmation screen for delayed death inhibitors of the malarial parasite plastid, 96 hour incubation; also: potency is read from the fitted curve at half-maximal effect; nearly all actives have a fitted effect of over 60% in size
# ASSAY_CONTEXT: P. falciparum luciferase growth in erythrocytes; series mostly up to 28.7 µM
The campaign covered roughly 2,300 compounds. About 1,400 (61%) were called active. About 29% were inconclusive and are not listed. The set was probably picked from earlier hits. Some of the results follow.
Measured Potency by item

Some solved cases for reference:
* O=C(Nc1ccon1)c1nc[nH]c1C(=O)NCc1ccccc1 | 7.94 µM (active)
* O=C(c1ccco1)N1CCN(C2c3ccccc3-c3ccccc32)CC1 | 12.6 µM (active)
* CCC1=C/C(=C/c2sc3ccccc3[n+]2CC)CC(C)(C)C1 | 0.355 µM (active)
* CCCNC(=O)c1ccc(S(=O)(=O)c2ccc(OC)cc2)c([N+](=O)[O-])c1 | 5.01 µM (active)
* Cc1ccc(S(=O)(=O)Nc2cccc3cccnc23)cc1 | 5.62 µM (active)

API: the following record is the query input.
Reported Potency ( COC(=O)[C@H](Cc1ccccc1)N(C)S(=O)(=O)c1cccc(S(=O)(=O)N(C)[C@@H](Cc2ccccc2)C(=O)OC)c1 ) = 14.1 µM (active)
